- TEST_SUMMARY: Pharmacokinetics of oral administration and intravenous injection in Beagle
- Assay type: in vivo, beagle dogs
- CONDITION_DESCRIPTION: male, beagle, dog, plasma, 10 mg/kg; Dogs, po 10 mpk
REPORTED_METRIC: bioavailability (%)

INSERT INTO measurements (smiles, endpoint_result) VALUES
  ('Cc1cc2n(c1)S(=O)(=O)c1ccc(C(=O)NCC[C@H]3COCCO3)cc1NC2=O', 126);

###

- TESTED_SYSTEM: UniProtKB P08684
- Sequence (P08684 whole entry): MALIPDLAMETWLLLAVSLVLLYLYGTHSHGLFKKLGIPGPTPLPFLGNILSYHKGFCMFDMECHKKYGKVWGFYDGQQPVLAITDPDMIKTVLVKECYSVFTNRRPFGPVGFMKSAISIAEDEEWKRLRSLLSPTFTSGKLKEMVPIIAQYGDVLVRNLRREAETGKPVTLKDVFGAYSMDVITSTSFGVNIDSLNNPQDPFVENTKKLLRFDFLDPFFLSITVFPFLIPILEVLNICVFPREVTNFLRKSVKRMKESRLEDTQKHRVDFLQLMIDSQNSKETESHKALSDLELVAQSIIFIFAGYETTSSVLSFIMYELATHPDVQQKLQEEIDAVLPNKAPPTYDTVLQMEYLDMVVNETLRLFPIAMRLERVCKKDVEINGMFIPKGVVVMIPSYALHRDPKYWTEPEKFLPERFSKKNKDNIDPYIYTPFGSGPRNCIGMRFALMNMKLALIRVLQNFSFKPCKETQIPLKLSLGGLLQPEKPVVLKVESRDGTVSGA
pIC50: −log10 of the molar value.
REPORTED_METRIC: pIC50

INSERT INTO measurements (smiles, endpoint_result) VALUES
  ('Cc1cc2n(c1)S(=O)(=O)c1ccc(C(=O)NCC[C@H]3COCCO3)cc1NC2=O', '< 4.30');
